Property: GI50; scope: individual compounds
System: SF-539
Assay: NCI tumour cell line growth inhibition, 48 h
Activity calls are given as the source filed them. Rule as the data show it: active = GI50 up to about 1.1 µM and inactive = higher.
MEASURED ENDPOINT: GI50

1. CCOC(=O)C1C(=S)NC(=O)C1C#N (stereo unspecified): > 100 µM (inactive)
2. COC(=O)CN1CCN(c2cccc3c2CCCC3)CC1: > 100 µM (inactive)
3. Cc1nc(-c2ccc([N+](=O)[O-])cc2)cn2c1nc1ccccc12: > 100 µM (inactive)
4. CCOC(=O)C1=CC(C)(C(=O)OCC)Nc2c(nc(OC)n(C)c2=O)N1 (stereo unspecified): > 10 µM (inactive)
5. CC1CCC2CC(=O)OC([C@@H]3C(=O)O[C@@H](C4=CCCC4)C4C(C)CCC43)C12 (stereo partly specified): > 100 µM (inactive)
6. CCCCCCCCCCCCCS(=O)(=O)O: > 100 µM (inactive)
7. CCN(CC)C(=C(C(Cl)=C(Cl)Cl)[N+](=O)[O-])N(CC)CC: > 100 µM (inactive)
8. C=CCCCCCCC#CCCCCCCCCCC[C@@H]1C(=O)O[C@H](C)[C@@H]1O.CCCCCCCCC#CCCCCCCCCCC[C@@H]1C(=O)O[C@H](C)[C@@H]1O: 20.8 µM (inactive)
9. O=C1/C(=C/c2ccccc2[N+](=O)[O-])N=C(c2ccccc2)N1c1nc2ccccc2s1: 30.1 µM (inactive)
10. Cc1cc(C)nc(NS(=O)(=O)c2ccc(Nc3c4ccccc4nc4c(C(=O)Nc5ccc(S(=O)(=O)N=C(N)N)cc5)ccc(Cl)c34)cc2)n1: 19.3 µM (inactive)
11. O=C(c1nc2ccccc2nc1O)C(O)c1ccccc1 (stereo unspecified): 44.1 µM (inactive)
12. O=C(CC(=O)C1CCOC1=O)C(=O)Nc1ccc(Cl)cc1Cl (stereo unspecified): > 100 µM (inactive)
13. Nc1ccccc1CCN1CCN(CCCc2ccccc2)CC1: 39.2 µM (inactive)
14. C(=N\Cc1ccccc1)/c1ccccc1-c1ccccc1/C=N/Cc1ccccc1: > 10 µM (inactive)
15. OC1CCCCCCCCCCC1[S+]1CCCC1.O[B-](F)(F)F (stereo unspecified): > 100 µM (inactive)
16. O=C(N/N=C/c1ccc(Cl)cc1)c1cc(I)cc(I)c1O: > 100 µM (inactive)
17. Cn1cc(NC(=O)c2cc(NC(=O)CCCCCCCCCC(=O)Nc3cc(C(=O)Nc4cc(C(=O)NCCC(=N)N)n(C)c4)n(C)c3)cn2C)cc1C(=O)NCCC(=N)N: 37.9 µM (inactive)
18. CC(C)(c1cn(Cc2ccccc2)c2ccccc12)c1cn(Cc2ccccc2)c2ccccc12: > 100 µM (inactive)
19. Oc1cccc(Nc2cc(O)nc(O)n2)c1: > 100 µM (inactive)
20. Cc1c(C)c2c(c(N)c1C#N)C(=O)N(CCN1CCNCC1)C2=O: 32.8 µM (inactive)
21. O=C1Cc2ccccc2CCc2ccccc21: > 100 µM (inactive)
